Value source: patent US20110301155A1

Reported % ACTmax by item:
# target.entity: GK (recombinant glucokinase, residues 12-465 of the human enzyme) (Homo sapiens, UniProt P35557)
# Construct: FLAG (C-terminal tag of vector pFLAG-CTC; only the vector is printed) (C); made in house; host or cells: Escherichia coli DH10b-T1r (pFLAG-CTC plasmid)
# Sequence (P35557 12-465): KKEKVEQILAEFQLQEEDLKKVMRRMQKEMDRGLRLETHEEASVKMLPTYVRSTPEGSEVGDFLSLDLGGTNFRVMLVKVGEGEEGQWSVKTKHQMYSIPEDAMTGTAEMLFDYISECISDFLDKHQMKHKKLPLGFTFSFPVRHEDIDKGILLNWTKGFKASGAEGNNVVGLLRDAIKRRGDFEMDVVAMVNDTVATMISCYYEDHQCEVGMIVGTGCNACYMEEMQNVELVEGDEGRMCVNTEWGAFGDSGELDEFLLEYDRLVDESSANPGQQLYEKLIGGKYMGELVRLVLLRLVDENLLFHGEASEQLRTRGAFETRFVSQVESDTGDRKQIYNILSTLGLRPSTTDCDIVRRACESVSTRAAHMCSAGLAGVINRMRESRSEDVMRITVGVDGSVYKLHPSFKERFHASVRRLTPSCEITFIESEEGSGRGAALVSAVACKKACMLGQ
# experiment.notes: Determination of GK activity value (luminescence assay)
# Format: biochemical
# condition.set: calculated maximal gain in GK enzyme activity at saturating compound concentration; 5 mM glucose, 5 μM ATP
Where a name gives a salt, the structure may show the parent alone.

[
  {
    "compound": "CC(C)S(=O)(=O)c1cc(Oc2ccc(S(C)(=O)=O)cc2)c2[nH]nc(Nc3ccn(C)n3)c2c1 [Example 136, trifluoroacetic acid salt]",
    "units.text": "%",
    "% ACTmax": 110.9
  },
  {
    "compound": "CC(C)Oc1cc(Oc2ccc(S(C)(=O)=O)cc2)c2[nH]nc(Nc3ccn(C)n3)c2c1",
    "units.text": "%",
    "% ACTmax": 146.3
  },
  {
    "compound": "COCC(O)Cn1ccc(Nc2n[nH]c3c(Oc4ccc(S(C)(=O)=O)cc4)cc(-c4ncccc4Cl)cc23)n1 (centres unmarked)",
    "units.text": "%",
    "% ACTmax": 146.5
  },
  {
    "compound": "CS(=O)(=O)c1ccc(Oc2cc(-c3ncccc3Cl)cc3c(Nc4ccn(CC(O)CO)n4)n[nH]c23)cc1 (centres unmarked)",
    "units.text": "%",
    "% ACTmax": 147.8
  },
  {
    "compound": "Cn1ccc(Nc2nn(C)c3c(Oc4ccc(S(C)(=O)=O)cc4)cc(-c4ncccc4Cl)cc23)n1",
    "units.text": "%",
    "% ACTmax": 24.1
  }
]

###

Where a name gives a salt, the structure may show the parent alone.
Reported melting point by item:
endpoint.label: melting point

[
  {
    "molecule": "Clc1cccnc1-c1cc(OCCc2ccccn2)c2[nH]nc(Nc3nccs3)c2c1 [Example 85]",
    "test.value": "185 to 187 °C"
  },
  {
    "molecule": "CC(C)Cc1cc(OCCc2ccsc2)c2[nH]nc(Nc3nccs3)c2c1 [Example 72]",
    "test.value": "150 to 151 °C"
  },
  {
    "molecule": "CC(C)Cc1cc(OCC(=O)N(C)C)c2[nH]nc(Nc3nccs3)c2c1 [Example 73]",
    "test.value": "96 to 98 °C"
  },
  {
    "molecule": "Cn1ccnc1Sc1ccc2[nH]nc(Nc3nccs3)c2c1 [Example 109]",
    "test.value": "> 250 °C"
  },
  {
    "molecule": "COC[C@H](C)Oc1cc(OCCc2ccccn2)c2[nH]nc(Nc3nccs3)c2c1 (as salt: hydrochloride) [Example 108, dihydrochloride]",
    "test.value": "150 to 153 °C"
  },
  {
    "molecule": "CCNC(=O)Nc1n[nH]c2ccc(-c3ncccc3Cl)cc12 [Example 101]",
    "test.value": "178 to 180 °C"
  },
  {
    "molecule": "Cn1ccc(Nc2n[nH]c3ccc(-c4ncccc4Cl)cc23)n1 [Example 63]",
    "test.value": "190 to 191 °C"
  },
  {
    "molecule": "Clc1cccnc1-c1ccc2[nH]nc(Nc3ncc(CN4CCOCC4)s3)c2c1 [Example 34]",
    "test.value": "217 °C"
  },
  {
    "molecule": "Cn1ccc(Nc2n[nH]c3c(OCCc4ccccn4)cc(-c4ncccc4Cl)cc23)n1 [Example 100]",
    "test.value": "89 to 91 °C"
  },
  {
    "molecule": "CC(C)S(=O)(=O)c1cc(OCCc2ccccn2)c2[nH]nc(Nc3nccs3)c2c1 [Example 117]",
    "test.value": "190 to 191 °C"
  }
]
